Form field: OD450 (one value per entry).
Molecular target: T1, Peptide C (human PAR-2), N-terminal biotinylated (Human)
T1 construct: also called Peptide C N-Term
T1 peptide: Biotin-GGGGSSLIGKV
Test: peptide ELISA
Where no end group is shown, it is not given here. The star is where a group is joined. Biotin = O=C1N[C@H]2[C@H](CS[C@H]2CCCCC(=O)*)N1

[in] Could you share which OD450 value was measured for H2M618N (antibody, V domains shown, chimeric: human variable, mouse constant domains) VH: EVQLLESGGGLVQPGGSLRLSCAASGFTFRSYTMTWVRQAPGKGLDWVSGITDSGAGTYYGDSVKGRFTISRDNSKNTLYLQMNSLRAEDTAVYYCVKEGDSGYDLDYWGQGTLVTVSS VL: DIQMTQSPSSLSASVGDRVTITCRASQGISTYLAWLQQKPGKAPKSLIYATSSLQSGVPSKFSGSRSGTDFTLTISSLQPEDFATYYCQQYKSSPLTFGGGTKVEIK ?
[out] 0 to 0.09 od

[in] Field request: OD450 | item: H2M611N (antibody, V domains shown, chimeric: human variable, mouse constant domains) VH: EVQLLESGGGLVQPGGSLRLSCAASGFTFSSYAMTWVRQAPGKGLYWVSAISGSGGSAYYADSVKGRFTISRDNSKNTLYLQMNSLRAEDTAVYYCAKEGDSGYDLDYWGRGTLVTVSS VL: DIQMTQSPSSLSASVGDRVTITCRARQGISNYLAWLQQKPGKAPKSLIYAASSLQSGVPSKFSGSGSGTDFTLTISSLQPEDFATYYCQQYKSSPLTFGGGTKVEIK
[out] 0 to 0.09 od

[in] Which OD450 reading was recorded for the binder H2M588N (antibody, V domains shown, chimeric: human variable, mouse constant domains) VH: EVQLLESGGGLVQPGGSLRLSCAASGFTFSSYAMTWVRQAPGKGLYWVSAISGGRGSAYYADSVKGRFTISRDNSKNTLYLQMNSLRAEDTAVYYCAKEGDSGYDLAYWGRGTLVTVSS VL: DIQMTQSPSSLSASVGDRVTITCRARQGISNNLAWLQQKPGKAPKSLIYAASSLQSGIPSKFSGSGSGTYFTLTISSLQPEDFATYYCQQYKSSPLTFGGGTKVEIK ?
[out] 0 to 0.09 od

[in] Could you share which OD450 value was measured for H2M591N (antibody, V domains shown, chimeric: human variable, mouse constant domains) VH: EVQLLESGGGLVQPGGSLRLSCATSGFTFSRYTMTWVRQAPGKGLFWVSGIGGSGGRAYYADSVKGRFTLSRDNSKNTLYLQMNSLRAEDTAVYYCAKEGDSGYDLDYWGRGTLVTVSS VL: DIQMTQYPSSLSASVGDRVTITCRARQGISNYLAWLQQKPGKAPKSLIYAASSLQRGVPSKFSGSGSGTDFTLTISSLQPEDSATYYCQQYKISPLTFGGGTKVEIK ?
[out] 0 to 0.09 od

[in] If you can, please state the reported OD450 value of H1M616N (antibody, V domains shown, chimeric: human variable, mouse constant domains) VH: EVQLVESGGGLAQPGRSLRVSCSASGFNFDDYAMHWVRQAPGKGLEWVSGISWNSGSRGYADSVKGRFTISRDNAKNSLYLQMNSLRAEDTALYYCVKENWAFEYWGQGTLVTVSS VL: DIVMTQTPLSSPVTLGQPASISCRSSHSLVHSDGSTYLSWLQQRPGQPPRLLIYKISNRFSGVPDRFSGSGAGTDFTLKISRVEAEDVGLYYCMQATQFPYTFGQGTKLEIK .
[out] 0 to 0.09 od
